- measuredOn: human PDE5 (Homo sapiens, UniProt O76074)
- measurementNotes: Inhibition of the type 5 phosphodiesterase (PDE5) activity, modified SPA test with platelet lysate
- conditionInfo: PDE5 from human platelet lysate, 0.5 μM cGMP
observedProperty: pIC50
// pIC50: -log10(molar conc.)

// pIC50 lookup, compound = CCOC(=O)N1CCCC(CNC(=O)c2c[nH]c3c(-c4c(OCC5CC5)ccc5c4OCO5)ncnc23)C1 (stereo not drawn) , result: 9.65

// pIC50 lookup, compound = CCC(=O)N1CCC[C@H](NC(=O)c2c[nH]c3c(-c4cc(F)c(OC)cc4OCC4CC4)ncnc23)C1 , result: 8.65

// pIC50 lookup, compound = COCCOc1ccc2c(c1-c1ncnc3c(C(=O)NC4CCN(C(C)=O)CC4)c[nH]c13)OCO2 , result: 8.10

// pIC50 lookup, compound = CCC(=O)N1CCC(NC(=O)c2c[nH]c3c(-c4cc(OC)c(F)cc4OCC4CC4)ncnc23)CC1 , result: 9.93

// pIC50 lookup, compound = COCC(=O)N1CCC[C@H](NC(=O)c2c[nH]c3c(-c4cc(F)c(OC)cc4OCC4CC4)ncnc23)C1 , result: 8.42

// pIC50 lookup, compound = COCC(=O)N1CCC(NC(=O)c2c[nH]c3c(-c4ccc(OC)cc4OCC4CC4)ncnc23)CC1 , result: 9.28

// pIC50 lookup, compound = COc1cc(OCC2CC2)c(-c2ncnc3c(C(=O)N[C@H]4CC[C@H](NC(C)=O)CC4)c[nH]c23)cc1F , result: 9.05

// pIC50 lookup, compound = COCC(=O)N1CCC(NC(=O)c2c[nH]c3c(-c4cc(C(C)=O)ccc4OCC4CC4)ncnc23)CC1 , result: 9.54

// pIC50 lookup, compound = CCC(=O)N1CC(NC(=O)c2c[nH]c3c(-c4c(OCC5CC5)ccc5c4OCO5)ncnc23)C1 , result: 9.37

// pIC50 lookup, compound = CC(=O)N[C@H]1CC[C@@H](NC(=O)c2c[nH]c3c(-c4ccc(F)cc4OCC4CC4)ncnc23)CC1 , result: 8.80

// pIC50 lookup, compound = COc1cc(OCC2CC2)c(-c2ncnc3c(C(=O)N[C@H]4CCCN(C(C)=O)C4)c[nH]c23)cc1F , result: 8.51

// pIC50 lookup, compound = O=C(N[C@H]1CCN(C(=O)CO)C1)c1c[nH]c2c(-c3c(OCC4CC4)ccc4c3OCO4)ncnc12 , result: 8.73

// pIC50 lookup, compound = COc1ccc(-c2ncnc3c(C(=O)N[C@H]4CC[C@H](NC(=O)[C@H](C)O)CC4)c[nH]c23)c(OCC2CC2)c1 , result: 9.32

// pIC50 lookup, compound = CCC(=O)N1CCC[C@@H](NC(=O)c2c[nH]c3c(-c4cc(OC)c(F)cc4OCC4CC4)ncnc23)C1 , result: 9.79

// pIC50 lookup, compound = C[C@H](O)C(=O)N1CCC(CNC(=O)c2c[nH]c3c(-c4c(OCC5CC5)ccc5c4OCO5)ncnc23)C1 (stereo partly drawn) , result: 9.08

// pIC50 lookup, compound = C[C@H](O)C(=O)N1CCC(CNC(=O)c2c[nH]c3c(-c4c(OCC5CC5)ccc5c4OCO5)ncnc23)CC1 , result: 9.34

// pIC50 lookup, compound = COCC(=O)N1CCC(NC(=O)c2c[nH]c3c(-c4ccc(F)cc4OCC4CC4)ncnc23)CC1 , result: 8.29

// pIC50 lookup, compound = COc1cc(OCC2CC2)c(-c2ncnc3c(C(=O)NC4CCN(C(C)=O)CC4)c[nH]c23)cc1F , result: 9.18

// pIC50 lookup, compound = COCC(=O)N[C@H]1CC[C@H](NC(=O)c2c[nH]c3c(-c4cc(OC)ccc4OCC4CC4)ncnc23)CC1 , result: 8.94

// pIC50 lookup, compound = COCCOc1ccc2c(c1-c1ncnc3c(C(=O)N[C@H]4CC[C@@H](NC(=O)[C@H](C)O)CC4)c[nH]c13)OCO2 , result: 8.03

// pIC50 lookup, compound = C[C@H](O)C(=O)N1CC[C@H](NC(=O)c2c[nH]c3c(-c4c(OCC5CC5)ccc5c4OCO5)ncnc23)C1 , result: 8.50

// pIC50 lookup, compound = C[C@H](O)C(=O)N1CCC[C@H](NC(=O)c2c[nH]c3c(-c4c(OCC5CC5)ccc5c4OCO5)ncnc23)C1 , result: 9.07

// pIC50 lookup, compound = O=C(NCC1CCN(C(=O)C2(O)CC2)CC1)c1c[nH]c2c(-c3c(OCC4CC4)ccc4c3OCO4)ncnc12 , result: 9.29

// pIC50 lookup, compound = O=CN1CCC(CNC(=O)c2c[nH]c3c(-c4c(OCC5CC5)ccc5c4OCO5)ncnc23)CC1 , result: 9.35

// pIC50 lookup, compound = CCCCOc1ccc2c(c1-c1ncnc3c(C(=O)NC4CCCN(C(=O)OCC)C4)c[nH]c13)OCO2 (stereo not drawn) , result: 9.39

// pIC50 lookup, compound = COCCOc1ccc2c(c1-c1ncnc3c(C(=O)N[C@H]4CC[C@@H](NC(C)=O)CC4)c[nH]c13)OCO2 , result: 8.11

// pIC50 lookup, compound = CCCCOc1ccc2c(c1-c1ncnc3c(C(=O)NC4CCN(C(=O)[C@H](C)O)CC4)c[nH]c13)OCO2 , result: 9.77

Hello, the source for this data is patent US8445501B2, in case you need it.
